A collection of binders and their measured IC50, Huvec IL-6 production
Biological target: T1, Human IL-33 (Axxora/Adipogen AG-40B-0038) (human, UniProt O95760 112-270, limits assumed)
T1 sequence (looked up): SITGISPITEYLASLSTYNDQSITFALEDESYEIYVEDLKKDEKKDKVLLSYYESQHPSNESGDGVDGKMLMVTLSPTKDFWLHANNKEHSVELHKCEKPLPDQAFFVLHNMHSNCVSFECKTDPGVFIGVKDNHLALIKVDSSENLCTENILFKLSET
Assay: cell-based or functional assay
Hi! Could you send only the number? It should be in nM, unit omitted.

>  <Binder>
H338L293 IgG1 (as in Table 13) (antibody, V domains shown, IgG1) VH: EVQLLESGGGLVQPGGSLRLSCAASGFTFSSYAMSWVRQAPGKGLEWVSAISPREGWQYYADSVKGRFTISRDNSKNTLYLQMNSLRAEDTAVYYCVRVVAGYFDSWGRGTLVTVSS VL: SYVLTQPPSVSVSPGQTARITCSGDALPKQYAHWYQQKPGQAPALVIYKDTERPSGIPERFSGSSSGTTVTLTISGVQAEDEADYYCMSSDPSGASRVFGGGTKVTVL

>  <Unit descriptor>
nM

>  <IC50, Huvec IL-6 production>
1.9

$$$$
>  <Binder>
IL330388_fgl IgG1 (antibody, V domains shown) VH: EVQLLESGGGLVQPGGSLRLSCAASGFTFSSYAMSWVRQAPGKGLEWVSASTPWQGSTYYADSVKGRFTISRDNSKNTLYLQMNSLRAEDTAVYYCVRWYWGWIDSWGRGTLVTVSS VL: SYELMQPPSVSVSPGQTARITCSGDALPKQYAHWYQQKPGQAPVLVIYKDTERPSGIPERFSGSSSGTTVTLTISGVQAEDEADYYCMSSDPSGASRVFGGGTKLTVL

>  <Unit descriptor>
nM

>  <IC50, Huvec IL-6 production>
2.1

$$$$

Kindly review the next binder as well.
Lookup: Return IC50, Huvec IL-6 production (reported value) for this binder: IL330377_fgl IgG1 (antibody, V domains shown) VH: EVQLLESGGGLVQPGGSLRLSCAASGFTFSSYAMSWVRQAPGKGLEWVSASDMLYGSTYYADSVKGRFTISRDNSKNTLYLQMNSLRAEDTAVYYCSQNILGYFDSWGRGTLVTVSS VL: SYELMQPPSVSVSPGQTARITCSGDALPKQYAHWYQQKPGQAPVLVIYKDTERPSGIPERFSGSSSGTTVTLTISGVQAEDEADYYCQSADSTGYHRVFGGGTKLTVL
Found: 6.6

Entry source: patent US20200353078A1
